All values here come from the supplement of paper PMC10567573.

Task for the reader: assign each of the following sequences its reported protein stability index.
Experiment: protein stability index of a GFP-peptide fusion (GPS, HEK-293T) (PSI 1-6); higher = more stable;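 note: 24-mer peptide tiles fused after GFP, lentivirally expressed, FACS-sorted into six equal bins by GFP/DsRed ratio, decoded by Illumina sequencing, PSI is the read-weighted mean bin number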
Conditions: treatment: DMSO; c terminus: a fixed tail appended
Answer with a bare number; do not write a unit.

Input: Request the reported protein stability index associated with TPLHVAAANKAVKCAEVIIPLLSS [ANKRD44]
Output: 2.44

Input: Request the reported protein stability index associated with NQSRCEMKTFVSPEAISPDLVKKI [TRIM15]
Output: 3.98

Input: Request the reported protein stability index associated with RGPGASGEQPEPGEAAAGGAAEEA [ACBD3]
Output: 5.54

Input: Request the reported protein stability index associated with ETTEAIDDEGWLHSGDLGQLDGLG [ACSBG2]
Output: 5.23

Input: Request the reported protein stability index associated with DISIHHFTCDEENVFAAVGRGLYV [WDR41]
Output: 2.7

Input: Request the reported protein stability index associated with FQFTDWPEQGVPKSGEGFIDFIGQ [PTPRD]
Output: 2.68

Input: Request the reported protein stability index associated with FMLLTQARLFDEPQLASLCLDTID [BTBD1]
Output: 2.29

Input: Request the reported protein stability index associated with AAAAKAFKHPSIRNPVSLVVTRLV [ADAMTS4]
Output: 2.22

Input: Request the reported protein stability index associated with HLEDWLEKRAKRLSSAPSSRAEPI [ZMAT5]
Output: 4.26

Input: Request the reported protein stability index associated with APDEKRSNVRWDHESVCKYYLCGF [LUC7L3]
Output: 2.34

Input: Request the reported protein stability index associated with YRHFLKSPNFDGWFKTRRKEMTQK [DENND6A]
Output: 2.83

Input: Request the reported protein stability index associated with FAASLLTVFAWLLQYARGLWLARA [C2CD2L]
Output: 2.8

Input: Request the reported protein stability index associated with KRDLLGALKYWKKAMNMRYSDRTN [FEM1C]
Output: 1.95

Input: Request the reported protein stability index associated with LFVADAYKGLFEVNPWKREVKLLL [APMAP]
Output: 2.56

Input: Request the reported protein stability index associated with SEDMWGDEDFTFGAYQPTVVSSEG [FBF1]
Output: 4.53

Input: Request the reported protein stability index associated with KISKEEMVRRLKMVVKTFMDMDQD [PDS5B]
Output: 2.26

Input: Request the reported protein stability index associated with AAAAMYTFLPDNFSPAKPKPSKEL [MYORG]
Output: 3.62

Input: Request the reported protein stability index associated with ICQKTATKKRKTFDSSRQRAEGTD [ZC2HC1A]
Output: 4.8

Input: Request the reported protein stability index associated with PQKLLGCSPALKRSHSDSLDHDIF [CDC25A]
Output: 3.12

Input: Request the reported protein stability index associated with TFDGSLFAVFPSLNEEQTLQEVPT [ETS2]
Output: 3.69

Input: Request the reported protein stability index associated with MSADPHLASSLSPSQDERMRSPQN [NOL4L]
Output: 5.17

Input: Request the reported protein stability index associated with AALQRSLAAALAQHSVPLQLELRA [TRADD]
Output: 2.89

Input: Request the reported protein stability index associated with FLADEEFDVVVCDQVSACIPVFRL [ALG2]
Output: 2.3

Input: Request the reported protein stability index associated with TLTSVQLLDCFGIPVLMALSWFIL [SLC35F2]
Output: 3.03

Input: Request the reported protein stability index associated with GGFGGGFAGGFVDFGACDGGLLTG [KRT13]
Output: 2.71

Input: Request the reported protein stability index associated with DLMVEATPRRVFANAHTYHINSIS [PPP2R2B]
Output: 2.58

Input: Request the reported protein stability index associated with NSGTDQEQIHLLLSSQCFSNISRP [M1AP]
Output: 2.98

Input: Request the reported protein stability index associated with ENPDLQEAYIAKQKRLKSKLLDHD [GDAP1]
Output: 4.53

Input: Request the reported protein stability index associated with GLSSSSARFLSRSIPSLQSEYVHY [CDC14A]
Output: 2.97

Input: Request the reported protein stability index associated with ETPEWLDSDSCQKCDQPFFWNFKQ [WDFY2]
Output: 2.94

Input: Request the reported protein stability index associated with LQCLQALYVDSLFFLRGRLDQLLR [PRAME]
Output: 2.09

Input: Request the reported protein stability index associated with EEKKAKVAPPAKQAQQKKAPAKKA [BRD3]
Output: 5.45

Input: Request the reported protein stability index associated with VNDLAVGLRRLGLHRTEGELQKIV [SLC25A25]
Output: 3.03

Input: Request the reported protein stability index associated with LGHAVLPSNARGPILSRSTSTGSA [SPRY1]
Output: 3.93

Input: Request the reported protein stability index associated with NLLGEGQHKCDECGKSFTQSSGLI [ZSCAN9]
Output: 3.66

Input: Request the reported protein stability index associated with CMSFNPETRRLSIGLDNGTISEFI [WDFY2]
Output: 2.42

Input: Request the reported protein stability index associated with QLHKPLAEGTPRSNHSAQDSAVEN [IKZF1]
Output: 5.35

Input: Request the reported protein stability index associated with DTFAAYTREQLYQAIFHAVDQYLA [MCOLN1]
Output: 2.66

Input: Request the reported protein stability index associated with AKGHVKLSDFGLCTGLKKAHRTEF [STK38L]
Output: 2.75
